Experiment: in vivo
Settings: male, Wistar, rat, po, 12.5 mg/kg
Endpoint: AUC(0-inf) (ng·h/mL)
Give bare numbers, in ng·h/mL.

Which AUC(0-inf) value belongs to O=C(C1CCCCC1)N1CC(=O)N2CCc3ccccc3C2C1 (stereo not shown) [Crude PRZ, praziquantel] ?
566

---

Assay: in vivo
Details: male, Wistar, rat, po, 12.5 mg/kg
Endpoint: Tmax (min)
Give bare numbers, in min.

# query: Tmax of entry O=C(C1CCCCC1)N1CC(=O)N2CCc3ccccc3C2C1 (stereo not shown) [Crude PRZ, praziquantel]
14.4

---

Assay: in vivo
Details: male, Wistar, rat, po, 12.5 mg/kg
Endpoint: AUC(0-t) (ng·h/mL)
Answers are plain numbers, in ng·h/mL.

Please look up its AUC(0-t): O=C(C1CCCCC1)N1CC(=O)N2CCc3ccccc3C2C1 (stereo not shown) [Crude PRZ, praziquantel]
390

---

Test: in vivo
Settings: male, Wistar, rat, po, 12.5 mg/kg
Endpoint: k el (s⁻¹)
One number for each entry, in s⁻¹.

Find the recorded k el belonging to O=C(C1CCCCC1)N1CC(=O)N2CCc3ccccc3C2C1 (stereo not shown) [Crude PRZ, praziquantel] and report it.
0.000173
